Data provenance: ChEMBL document CHEMBL1124816

# testedTarget: Cyclooxygenase (Homo sapiens, UniProt P35354+P23219)
# measurementNotes: Inhibition of human platelet Prostaglandin G/H synthase
Consider the cut-off 1 µM. If the recorded IC50 is strictly smaller, the label is Criterion met; if not, the label is Criterion not met.

State whether 1 µM exceeds IC50 recorded for CC(C)(C)c1cc(/C=C/c2ccc(F)cc2)cc(C(C)(C)C)c1O .
Criterion met

Please check: IC50 for Cc1cc(/C=C/c2ccc(Cl)cc2)cc(C)c1O , strictly under 1 µM or not?
Criterion met

Identify whether the molecule Cc1cc(C(=O)c2cccs2)cc(C)c1O records IC50 below 1 µM.
Criterion met

Hello, is IC50 of the following molecule strictly smaller than 1 µM? CC(C)c1cc(/C=C/c2cccs2)cc(C(C)C)c1O
Criterion met

Confirm or reject: IC50 of Cc1cc(/C=C/c2ccc(F)cc2F)cc(C)c1O lies strictly below 1 µM
Criterion met

# TODO verify IC50 < 1 µM strictly for this molecule: Cc1cc(/C=C/c2cccs2)cc(C)c1O
Criterion met

Is IC50 of Cc1cc(/C=C/c2csc3ccccc23)cc(C)c1O strictly below 1 µM?
Criterion met

Given the entry Cc1cc(/C=C/c2cccc(C(=O)O)c2)cc(C)c1O , would its reported IC50 be below 1 µM?
Criterion not met

Is it true that IC50 reported for Cc1cc(/C=C/c2ccccc2Br)cc(C)c1O is less than 1 µM?
Criterion met

Does the reported IC50 of the following molecule sit strictly below 1 µM? Cc1cc(/C=C/c2ccc(C(=O)O)cc2)cc(C)c1O
Criterion not met

Threshold test, IC50 < 1 µM: Cc1ccc(/C=C/c2cc(C(C)(C)C)c(O)c(C(C)(C)C)c2)cc1
Criterion not met

Lab note: confirm whether the reported IC50 for this molecule is below 1 µM, equality not counting. molecule: Cc1cc(/C=C/c2ccc(C(C)C)cc2)cc(C)c1O
Criterion not met

Hello, is IC50 of the following molecule strictly smaller than 1 µM? CCCc1cc(/C=C/c2cccs2)cc(OC)c1O
Criterion not met

Just wondering, is IC50 of CCc1cc(/C=C/c2cccs2)cc(OC)c1O below 1 µM?
Criterion not met

Input COc1ccccc1/C=C/c1cc(C)c(O)c(C)c1 ; condition: IC50 strictly below 1 µM. Does it hold?
Criterion not met

Find out if reported IC50 for Cc1cc(CCc2cccs2)cc(C)c1O is less than 1 µM
Criterion met

Hi there! Is IC50 for COc1ccc(/C=C/c2cc(C)c(O)c(C)c2)cc1 below 1 µM, do you know?
Criterion not met

Hello, I'm reviewing records and need to know if IC50 of C=CCc1cc(/C=C/c2cccs2)cc(C)c1O is below 1 µM. Could you check?
Criterion met

Below 1 µM on IC50? Entry C/C(=C\c1cc(C)c(O)c(C)c1)c1ccc(F)cc1
Criterion met

Lab note: confirm whether the reported IC50 for this molecule is below 1 µM, equality not counting. molecule: Cc1cc(/C=C/c2ccc(Cl)s2)cc(C)c1O
Criterion not met

Dear reviewer, please state whether Cc1ccc(/C=C/c2cc(C)c(O)c(C)c2)cc1 has IC50 strictly beneath 1 µM.
Criterion not met

is_below(IC50, 1 µM) for Cc1cc(/C=C/c2ccccc2C(=O)O)cc(C)c1O ?
Criterion not met

Field: below-cutoff. Rule: recorded IC50 strictly less than 1 µM. Subject: CC(C)(C)c1cc(/C=C/c2cccs2)cc(C(C)(C)C)c1O
Criterion met

Field: below-cutoff. Rule: recorded IC50 strictly less than 1 µM. Subject: Cc1cc(/C=C/c2cccnc2)cc(C)c1O
Criterion not met

Item COc1ccc(/C=C/c2cc(C(C)(C)C)c(O)c(C(C)(C)C)c2)cc1 : IC50 beneath 1 µM, strictly?
Criterion not met

IC50 strictly < 1 µM for this molecule? Cc1cc(/C=C2\CCOC2=O)cc(C)c1O
Criterion not met

Quick check: does Cc1cc(/C=C/c2ccc(F)cc2)cc(C)c1O have IC50 under 1 µM?
Criterion not met

Threshold test, IC50 < 1 µM: Cc1cc(/C=C/c2ccccc2)cc(C)c1O
Criterion not met

Strictly below 1 µM: is that where IC50 of CCCOc1ccc(/C=C/c2cc(C)c(O)c(C)c2)cc1 sits?
Criterion met

Lab note: confirm whether the reported IC50 for this molecule is below 1 µM, equality not counting. molecule: Cc1cc(CCc2ccc(F)cc2)cc(C)c1O
Criterion met

Hi there! Is IC50 for Cc1cc(/C=C/c2c(F)cccc2F)cc(C)c1O below 1 µM, do you know?
Criterion met

Please let me know if CC(C)(C)c1cc(C(=O)c2cccs2)cc(C(C)(C)C)c1O shows IC50 below 1 µM.
Criterion met

Is it true that IC50 reported for COc1cc(/C=C/c2cccs2)cc(C)c1O is less than 1 µM?
Criterion not met

IC50 strictly < 1 µM for this molecule? Cc1cc(/C=C/c2ccncc2)cc(C)c1O
Criterion not met

Find out if reported IC50 for Cc1cc(Cc2cccnc2)cc(C)c1O is less than 1 µM
Criterion not met

Dear reviewer, please state whether Cc1ccc(/C=C/c2cc(C)c(O)c(C)c2)s1 has IC50 strictly beneath 1 µM.
Criterion met

In the record for Cc1cccc(/C=C/c2cc(C)c(O)c(C)c2)c1 , is IC50 less than 1 µM?
Criterion not met

Threshold test, IC50 < 1 µM: Cc1cc(/C=C/c2cccs2)cc(F)c1O
Criterion met
